system: Adriamycin-resistant mouse leukemic cells P388/ADR; assay: In vitro tumor cell proliferation inhibiting test (Adriamycin-resistant mouse leukemic cells P388/ADR); type: cell-based; conditions: 48 h, 2×10^5, RPMI 1640 with 10% bovine fetal serum, 2 days, read-out: 50% proliferation inhibitory concentration: IC50
measured_attribute: IC50 (µg/mL)
Expressed in µg/mL, but write only the number.

Consider the worked cases shown below.
{"compound": "COc1cc2c(c(OC)c1OC)-c1ccc(OC)c(=O)cc1C(NC(=O)[C@H]1O[C@H](O)[C@H](O)[C@@H](O)[C@@H]1O)CC2 (stereo partly shown)", "IC50 / µg/mL": 0.037}
{"compound": "COc1cc2c(c(OC)c1OC)-c1ccc(OC)c(=O)cc1C(NC(=O)[C@@H]1COC(C)(C)O1)CC2 (stereo partly shown)", "IC50 / µg/mL": 0.036}
{"compound": "COc1cc2c(c(OC)c1OC)-c1ccc(OC)c(=O)cc1C(NC(=O)[C@H]1O[C@H](OC(C)=O)[C@H](O)[C@@H](O)[C@@H]1OC(C)=O)CC2 (stereo partly shown)", "IC50 / µg/mL": 0.034}

Proceed to the following item.
**Query** Returns the measured IC50 for the input compound. Input: COc1cc2c(c(OC)c1OC)-c1ccc(OC)c(=O)cc1C(NC(=O)[C@H]1COC(C)(C)O1)CC2 (stereo partly shown)
**Result** 0.066

###

Assay: Acute toxicity test
Design: species or system mouse (ddY male)
Conditions: mouse, in vivo; intravenous; mortality for 1 week; Litchfield-Wilcoxon method
Description: The test compound is administered to each 5-week old ddY male mouse, and mortality is observed for 1 week. A 50% lethal dose (LD50) is calculated from the number of mice died in each group by a Litchfield-Wilcoxon method. The test compound (compound (a)) is suspended in 10% propylene glycol. Ten dilution gradients are prepared from the maximum concentration 80 mg/kg at a ratio of 1.2, and the test is carried out.
measured_attribute: LD50 at 168 h (mg/kg)
Expressed in mg/kg, but write only the number.

**Query** Returns the measured LD50 at 168 h for the input compound. Input: COc1cc2c(c(OC)c1OC)-c1ccc(OC)c(=O)cc1C(NC(=O)[C@@H]1COC(C)(C)O1)CC2 (stereo partly shown)
**Result** 38
